Tested on: Poly I:C-induced ICAM-1 expression in BEAS2B cells
experiment: Poly I:C-induced ICAM-1 expression in BEAS2B cells
Assay type: cell-based
measurement_conditions: Homo sapiens, BEAS-2B, read-out: Poly IC induced ICAM1 in BEAS2B IC50
Rule: IC50 below 10 nM gives Y. Equal to or above 10 nM gives N.

Illustrative cases are given below, each with its answer.
compound="COc1ccc(-n2nc(C(C)C)cc2NC(=O)Nc2ccc(Oc3cc(Nc4ccc5[nH]ncc5c4)ncn3)c3ccccc23)cc1 [Example 39]" group=N
compound="Cc1cc(Nc2cc(Oc3ccc(NC(=O)Nc4cc(C(C)(C)C)nn4-c4ccc(OCCN5CCOCC5)cc4)c4ccccc34)ccn2)cc2cn[nH]c12 [Example 68]" group=Y
compound="Cc1ccc(-n2nc(C(C)(C)C)cc2NC(=O)Nc2ccc(Oc3ccnc(Nc4cccc5cn[nH]c45)n3)c3ccccc23)cc1 [Example 25]" group=N
compound="Cc1cc(Nc2cc(Oc3ccc(NC(=O)Nc4cc(C(C)(C)C)nn4-c4ccc(OCCN(C)C)cc4)c4ccccc34)ccn2)cc2cn[nH]c12 [Example 58]" group=Y
compound="Cc1cc(Nc2nccc(Oc3ccc(NC(=O)Nc4cc(C(C)(C)C)nn4-c4ccc(=O)n(CCN5CCOCC5)c4)c4ccccc34)n2)cc2cn[nH]c12 [Example 89]" group=N

Below: the item to evaluate.
Here's an entry: CC(C)(C)c1cc(NC(=O)Nc2ccc(Oc3ccnc(Nc4ccc5[nH]ncc5c4)c3)c3ccccc23)n(-c2ccc(OCCN3CCOCC3)cc2)n1 [Example 67] . Is its IC50 below 10 nM?
Y
